- assay-summary: chemical genetic growth profiling, strain panel (AID 1159580);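 also: tested at 20 µM; growth read once vehicle control cultures reached saturation at 30 °C; 1 = growth at the plate median or of vehicle wells; lower values mean less growth of the strain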
- conditions: S. cerevisiae deletion strains, growth OD, locus YOL006C, strain TOP1, active compounds read low
Screen size: about 5,500 compounds; about 2,000 (36%) were called active. Not shown: some 18% with an inconclusive outcome. The list shows a part of the results.
normalized growth for assorted molecules
Give a plain numeric answer without units written out.

molecule=COc1c(CC=C(C)C)c2c(c3oc(=O)c(-c4ccc(O)cc4)c(O)c13)C=CC(C)(C)O2 observed_value=0.779
molecule=C[N+](C)(C)CC(=O)[O-] observed_value=0.975

The value of normalized growth measured for the molecule `S=C=NCc1ccccc1` turned out to be 0.101
